All figures here come from patent US20220411419A1.

tested on: downmodulation of MHC-I molecules expressed on the surface of HIV infected SupT1 cells; settings: read-out: EC50 for inhibition of MHC-I downmodulation utilizing the R1 parameter; SupT1 cells infected with HIV-1; compounds added 20 h after infection, 24 h incubation
Overview of recorded pEC50 for various molecules
// pEC50: -log10(molar conc.)

CC1(C)Cc2cccc(CCC(=O)Nc3nc4ccccc4s3)c2O1	5.86

[ask] If you can, please state the reported pEC50 value of `Cc1ccccc1CCC(=O)N(C)c1nc2c(s1)CCCC2` .
[reply] 5.68

====

system: downmodulation of MHC-I molecules expressed on the surface of HIV infected SupT1 cells; assay: cells; conditions: Human immunodeficiency virus 1, SUP-T1, read-out: EC50 for inhibition of MHC-I downmodulation utilizing the R1 parameter
Overview of recorded log10 of EC50 for various molecules
For clarity, the numbers are log10 values of EC50 expressed in µM.

Examples with answers:
CC1(C)Cc2cccc(OCC(=O)Nc3ccc(C4CC4)cn3)c2O1 [Compound 71]	-0.82
Cc1ccc(N(Cc2ccccc2)C(=O)COc2cccc3c2OC(C)(C)C3)nn1 [Compound 36]	1.37

[ask] Which log10 of EC50 value belongs to Cc1csc(N(Cc2cccnc2)C(=O)COc2cccc3c2OC(C)(C)C3)n1 [Compound 34] ?
[reply] 0.15

[ask] Item under review: COc1ccc(C)cc1OCC(=O)N(C)c1nc2c(s1)CCCC2 [Compound 122] . Reported log10 of EC50?
[reply] 0.70

[ask] Bench note: what log10 of EC50 did Cc1cc(NC(=O)COc2cccc3c2OC(C)(C)C3)ncc1Cl [Compound 18] show?
[reply] 1.26

====

experiment: in vitro; conditions: human, uninfected SupT1 cells
readout_type: CC50 at 48 h

As a guide, the following entries are already answered.
CN(C(=O)COc1cccc2[nH]ccc12)c1nc2c(s1)CCCC2	> 125 µM
Cc1ccnc(CN(C(=O)COc2cccc3c2OC(C)(C)C3)c2nc3c(s2)CCCC3)c1	> 125 µM

[ask] What value of measured CC50 at 48 h is listed for `CC1(C)Cc2cccc(OCC(=O)Nc3nc(C(=O)N4CC[C@H](CO)C4)cs3)c2O1` ?
[reply] > 90 µM

[ask] Give its CC50 at 48 h value. Item: `COc1ccc(OCC(=O)N(C)c2nc3c(s2)CCCC3)cc1`
[reply] > 125 µM

[ask] What CC50 at 48 h value was documented for this compound, `COc1ccccc1OCC(=O)Nc1nc2cc(C)c(C)cc2s1` ?
[reply] > 100 µM

[ask] What CC50 at 48 h value was documented for this compound, `Cc1csc(N(C(=O)COc2cccc3c2OC(C)(C)C3)c2cncnc2)n1` ?
[reply] > 125 µM

[ask] Item under review: `CC1(C)Cc2cccc(OCC(=O)Nc3nc4ccccc4s3)c2O1` . Reported CC50 at 48 h?
[reply] > 100 µM

[ask] Fill in the blank: the reported CC50 at 48 h of `CC1(C)Cc2cccc(OCC(=O)Nc3ccc(C(F)(F)F)nc3)c2O1` is ____.
[reply] > 100 µM

[ask] // lookup CC50 at 48 h for `Cc1cc(NC(=O)COc2cccc3c2OC(C)(C)C3)ncc1Br`
[reply] > 125 µM

====

assay: in vitro; conditions: human, uninfected SupT1 cells
Each item that follows carries a reported CC50.

COc1ccccc1OCC(=O)Nc1nc2cc(C)c(C)cc2s1	> 100 µM
Cc1nc(NC(=O)COc2cccc3c2OC(C)(C)C3)ccc1C1CC1	> 125 µM

[ask] Entry under review: `CC1(C)Cc2cccc(OCC(=O)Nc3cccc4nccnc34)c2O1` . Reported CC50?
[reply] > 100 µM

[ask] I have this compound here, `Cc1ccc(N(C(=O)COc2cccc3c2OC(C)(C)C3)c2nc(C)cs2)nn1` , and I need its recorded CC50.
[reply] > 100 µM

[ask] Could you share which CC50 value was measured for `CC1(C)Cc2cccc(OCC(=O)Nc3ncnc4ccccc34)c2O1` ?
[reply] > 100 µM

[ask] Suppose we examine the compound `CC1(C)Cc2cccc(OCC(=O)Nc3nc4ccc(OC(F)(F)F)cc4s3)c2O1` ; what CC50 value has been reported?
[reply] > 100 µM

[ask] Requested read-out: CC50. Entry: `Cc1nccc(NC(=O)COc2cccc3c2OC(C)(C)C3)n1`
[reply] > 100 µM

[ask] Quick one: CC50 of `COc1ccccc1OCC(=O)Nc1nc2cc(F)ccc2s1` ?
[reply] > 100 µM
